# TARGET OR SYSTEM: BTK (Homo sapiens)
# Sequence (Q06187 whole entry): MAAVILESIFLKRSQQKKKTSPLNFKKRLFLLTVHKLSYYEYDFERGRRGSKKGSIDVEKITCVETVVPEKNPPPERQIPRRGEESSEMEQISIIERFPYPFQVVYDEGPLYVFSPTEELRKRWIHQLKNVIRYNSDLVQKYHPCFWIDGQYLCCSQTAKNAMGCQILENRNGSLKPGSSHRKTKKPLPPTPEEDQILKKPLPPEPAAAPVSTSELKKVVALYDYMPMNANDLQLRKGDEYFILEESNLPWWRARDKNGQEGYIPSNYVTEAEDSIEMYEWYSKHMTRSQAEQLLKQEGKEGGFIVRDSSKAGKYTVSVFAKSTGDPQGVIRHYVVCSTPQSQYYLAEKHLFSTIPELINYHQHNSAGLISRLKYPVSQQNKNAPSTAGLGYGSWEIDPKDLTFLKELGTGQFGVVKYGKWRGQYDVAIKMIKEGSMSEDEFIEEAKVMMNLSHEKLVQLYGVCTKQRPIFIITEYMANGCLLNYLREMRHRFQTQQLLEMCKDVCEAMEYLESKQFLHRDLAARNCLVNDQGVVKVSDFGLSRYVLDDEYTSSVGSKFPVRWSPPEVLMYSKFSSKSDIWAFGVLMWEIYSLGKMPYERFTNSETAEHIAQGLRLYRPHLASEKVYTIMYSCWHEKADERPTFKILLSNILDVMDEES
# TEST DESCRIPTION: Degradation of BTK protein in Namalwa cells (Western blot; DC50, Dmax)
# APPLIED CONDITIONS: Namalwa B lymphocyte cells; 10^−6 M; Western blot
EXPERIMENTAL READOUT: degradation of BTK protein at 10^−6 M

// known answers, use as guide
Nc1ncnc2c1c(-c1ccc(Oc3ccccc3)cc1)nn2C1CCN(C(=O)N2CCN(c3ccc4c(c3)C(=O)N(C3CCC(=O)NC3=O)C4=O)CC2)CC1 (stereo not drawn); degradation
Nc1ncnc2c1c(-c1ccc(Oc3ccccc3)cc1)nn2C1CCN(C(=O)N2CCC(C3CCN(c4ccc5c(c4)CN(C4CCC(=O)NC4=O)C5=O)CC3)CC2)CC1 (stereo not drawn); degradation
Nc1ncnc2c1c(-c1ccc(Oc3ccccc3)cc1)nn2C1CCN(CC2CCN(C(=O)N3CCC(CN4CCN(c5ccc6c(c5)C(=O)N(C5CCC(=O)NC5=O)C6=O)CC4)CC3)CC2)CC1 (stereo not drawn); degradation
Nc1ncnc2c1c(-c1ccc(Oc3ccccc3)cc1)nn2[C@@H]1CCCN(CC2CCN(C(=O)N3CCC(C4CCN(c5ccc6c(c5)C(=O)N(C5CCC(=O)NC5=O)C6=O)CC4)CC3)CC2)C1 (stereo partly drawn); degradation
Nc1ncnc2c1c(-c1ccc(Oc3ccccc3)cc1)nn2[C@@H]1CCCN(C(=O)N2CCC(CCN3CCN(c4ccc5c(c4)C(=O)N(C4CCC(=O)NC4=O)C5=O)CC3)CC2)C1 (stereo partly drawn); degradation

In: Please look up its degradation of BTK protein at 10^−6 M: Nc1ncnc2c1c(-c1ccc(Oc3ccccc3)cc1)nn2C1CCN(C(=O)N2CCC(CN3CCN(c4ccc5c(c4)C(=O)N(C4CCC(=O)NC4=O)C5=O)CC3)CC2)CC1 (stereo not drawn)
Out: degradation

In: Please look up its degradation of BTK protein at 10^−6 M: Nc1ncnc2c1c(-c1ccc(Oc3ccccc3)cc1)nn2[C@@H]1CCCN(C2CCN(C(=O)N3CCC(CCN4CCN(c5ccc6c(c5)C(=O)N(C5CCC(=O)NC5=O)C6=O)CC4)CC3)CC2)C1 (stereo partly drawn)
Out: degradation

In: Please look up its degradation of BTK protein at 10^−6 M: Nc1ncnc2c1c(-c1ccc(Oc3ccccc3)cc1)nn2[C@@H]1CCCN(C2CCN(C(=O)N3CCC(N4CCN(c5ccc6c(c5)C(=O)N(C5CCC(=O)NC5=O)C6=O)CC4)CC3)CC2)C1 (stereo partly drawn)
Out: degradation

In: Please look up its degradation of BTK protein at 10^−6 M: Nc1ncnc2c1c(-c1ccc(Oc3ccccc3)cc1)nn2C1CCN(CC2CCN(C(=O)N3CCN(c4ccc5c(c4)C(=O)N(C4CCC(=O)NC4=O)C5=O)CC3)CC2)CC1 (stereo not drawn)
Out: degradation

###

# TARGET OR SYSTEM: BTK (Homo sapiens)
# TEST DESCRIPTION: Degradation of BTK protein in Namalwa cells (Western blot; DC50, Dmax)
Entries annotated with measured Dmax

NC(=O)c1c(-c2ccc(Oc3ccccc3)cc2)nn2c1NCCC2C1CCN(CC2CCN(CCN3CCN(c4ccc5c(c4)CN(C4CCC(=O)NC4=O)C5=O)CC3)CC2)CC1 (centres unmarked); > 75%
Nc1ncnc2c1c(-c1ccc(Oc3ccccc3)cc1)nn2C1CCN(CC2CCN(CC3CCN(c4ccc5c(c4)CN(C4CCC(=O)NC4=O)C5=O)CC3)CC2)CC1 (centres unmarked); < 50%
NC(=O)c1c(-c2ccc(Oc3ccccc3)cc2)nn2c1NCC[C@H]2C1CCN(CC2CCN(CCC3CCN(c4ccc5c(c4)CN(C4CCC(=O)NC4=O)C5=O)CC3)CC2)CC1 (some centres unmarked); > 75%
NC(=O)c1c(-c2ccc(Oc3ccccc3)cc2)nn2c1NCCC2C1CCN(C(=O)N2CCN(CCN3CCN(c4ccc5c(c4)CN(C4CCC(=O)NC4=O)C5=O)CC3)CC2)CC1 (centres unmarked); > 90%

Lab note: next molecule to report on.
In: Please look up its Dmax: NC(=O)c1c(-c2ccc(Oc3ccccc3)cc2)nn2c1NCCC2C1CCN(C2CCN(CCN3CCN(c4ccc5c(c4)CN(C4CCC(=O)NC4=O)C5=O)CC3)CC2)CC1 (centres unmarked)
Out: > 75%
